As shown below, each of these compounds has a reported melting point value.

Record excerpt, results attached:
Cc1ccc(C(=O)C2=C(O)C(=O)N(c3nc4cccnc4s3)C2c2ccc3c(c2)OCO3)o1 (centres unmarked)    248 to 249 °C
CCc1ccc2nc(N3C(=O)C(O)=C(C(=O)c4ccc(C)o4)C3c3cccc(Cl)c3)sc2c1 (centres unmarked)    174 to 177 °C

Q: Look up melting point: CCOc1ccc2nc(N3C(=O)C(O)=C(C(=O)c4ccc(C)o4)C3c3ccccc3)sc2c1 (centres unmarked)
Ans: 247 to 248 °C

Q: Look up melting point: CCc1ccc2nc(N3C(=O)C(O)=C(C(=O)c4ccc(C)o4)C3c3ccc(C(C)C)cc3)sc2c1 (centres unmarked)
Ans: 220 to 222 °C

Q: Look up melting point: Cc1ccc(C(=O)C2=C(O)C(=O)N(C3CCC(O)CC3)C2c2ccccc2F)o1 (centres unmarked)
Ans: 204 to 206 °C

Q: Look up melting point: CCOc1ccc2nc(N3C(=O)C(O)=C(C(=O)c4ccc(C)o4)C3c3sc4ccccc4c3C)sc2c1 (centres unmarked)
Ans: 227 to 228 °C

Q: Look up melting point: Cc1ccc(C(=O)C2=C(O)C(=O)N(c3nc(N4CCOCC4)c4nc[nH]c4n3)C2c2ccccc2)o1 (centres unmarked)
Ans: 291 to 292 °C

* * *

As shown below, each of these compounds has a reported melting point value.

Q: Look up melting point: COc1ccc2nc(N3C(=O)C(O)=C(C(=O)c4ccc(C)o4)C3c3cccc(O)c3)sc2c1 (centres unmarked)
Ans: 263 to 264 °C

Q: Look up melting point: O=C(C1=C(O)C(=O)N(c2nc3ccc(F)cc3s2)C1c1ccccc1F)c1nccs1 (centres unmarked)
Ans: 298 to 299 °C

Q: Look up melting point: Cc1ccc(C(=O)C2=C(O)C(=O)N(Cc3nc4ccccc4[nH]3)C2c2ccccc2F)o1 (centres unmarked)
Ans: 91 to 93 °C

Q: Look up melting point: CC(C)(C)C(=O)C1=C(O)C(=O)N(c2nc3ccc(Cl)cc3s2)C1c1ccc(F)cc1 (centres unmarked)
Ans: 239 to 240 °C

* * *

As shown below, each of these compounds has a reported melting point value.

Record excerpt, results attached:
O=C(C1=C(O)C(=O)N(c2nc3ccc(Cl)cc3s2)C1c1ccc(F)cc1)C1CC1 (stereo not shown) [Compound 452]    229 to 230 °C
COc1ccc2nc(N3C(=O)C(O)=C(C(=O)c4ccc(C)o4)C3c3ccc(OC)c(O)c3)sc2c1 (stereo not shown) [Compound 156]    241 to 242 °C
Cc1ccc(C(=O)C2=C(O)C(=O)N(c3nc4c(Cl)cccc4s3)C2c2cccc3ccccc23)o1 (stereo not shown) [Compound 619]    249 to 250 °C

Continue with the next compound.
Q: Look up melting point: O=C(C1=C(O)C(=O)N(c2nccs2)C1c1ccc(OCc2ccccc2)cc1)c1cc2ccccc2o1 (stereo not shown) [Compound 53]
Ans: 193 to 195 °C

* * *

# test_details: Cytotoxicity (CellTiter 96 Aqueous Non-Radioactive Cell Proliferation Assay)
# Assay type: cell-based
# reported_conditions: human, Huh7 cells
As shown below, each of these compounds has a reported CC50 value.

Record excerpt, results attached:
O=C(C1=C(O)C(=O)N(c2nccs2)C1c1ccc(OCc2ccccc2)cc1)c1cc2ccccc2o1 (centres unmarked)    > 98 µM
O=C(C1=C(O)C(=O)N(c2nnc(SCc3ccc(F)cc3)s2)C1c1cccc(O)c1)c1cc2ccccc2o1 (centres unmarked)    > 89 µM
COc1cc(C2C(C(=O)c3cc4ccccc4o3)=C(O)C(=O)N2c2nnc(C)s2)ccc1OCc1ccccc1 (centres unmarked)    > 90 µM
CC(=O)c1sc(N2C(=O)C(O)=C(C(=O)c3cc4ccccc4o3)C2c2ccc(OCc3ccccc3)cc2)nc1C (centres unmarked)    > 89 µM

Continue with the next compound.
Q: Look up CC50: CCOc1cc(C2C(C(=O)c3cc4ccccc4o3)=C(O)C(=O)N2c2nnc(SCc3ccccc3)s2)ccc1O (centres unmarked)
Ans: > 85 µM
